Values from ChEMBL document CHEMBL1126704

Organism: Homo sapiens
Test: In vitro inhibition of U-46619 (3 uM) -induced human platelet aggregation
Type: functional
pIC50: −log10 of the molar value.
# pIC50 per record follows

[
  {
    "COMPOUND": "O=C(O)CCCC/C=C(\\c1ccccc1)c1cccnc1 [(E)-ISBOGREL]",
    "pIC50": 3.55
  },
  {
    "COMPOUND": "O=C(O)c1ccc2c(c1)/C(=C\\Cc1cccnc1)c1ccccc1CO2",
    "pIC50": 5.02
  }
]

###

Assay: Tested for specific binding of radioligand [3H]U-46619 to thromboxane A2 /prostaglandin H2 receptor in guinea pig washed platelets
Set-up: species or system Cavia porcellus
# Ki per record follows
PROPERTY LABEL: Ki (nM)

[
  {
    "MOLECULE": "O=C(O)c1ccc2c(c1)/C(=N\\Cc1cccnc1)c1ccccc1CO2",
    "PROPERTY LABEL": "Ki",
    "UNIT DESCRIPTOR": "nM",
    "VALUE MEASURED": 120
  },
  {
    "MOLECULE": "O=C(O)CCCC/C=C(\\c1ccccc1)c1cccnc1 [(E)-ISBOGREL]",
    "PROPERTY LABEL": "Ki",
    "UNIT DESCRIPTOR": "nM",
    "VALUE MEASURED": 2700
  }
]
